Measured IC50, inhibition of TR cell-to-cell spread in ARPE-19, listed per entry for reference.
test-system: gH of HCMV strain TR (human cytomegalovirus strain TR)
procedure-text: cell-based or functional assay
The answer is to be given in µg/mL; state only the numeric part.

binder: 21E9 (antibody, V domains shown, also called NAb 21E9) VH: QIQLVQSGPELKKPGETVKISCKASGYTFTIYGMNWVKQAPGKGLKWMGWINTYTGEPTYADDFRGRFAFSLETSASTAYLQINNLKNEDTATYFCARKGYYGSSGYFDYWGQGTTLTVSS VL: SIVMTQTPKFLLVSAGDRVTITCKASQSVSNDVSWYQQKPGQSPKLLIYYASNRYTGVPDRFTGSGYGTDFTFTISTVQAEDLAVYFCQQDYSSPWTFGGGTKLEIK
value-unit: µg/mL
reading: 262

Lookup: For the binder 62-100 (antibody, V domains shown, also called NAb 62-100) VH: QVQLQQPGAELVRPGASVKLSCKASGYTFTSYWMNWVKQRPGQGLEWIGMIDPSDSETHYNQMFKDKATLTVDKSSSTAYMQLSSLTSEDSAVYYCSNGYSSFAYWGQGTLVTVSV VL: DIVLTQSPATLSVTPGDSVSLSCRASQSISNNLHWYQQKSHESPRLLIKYASQSISGIPSRFSGSGSGTDFTLSINSVETEDFGKYVCQQSNSWPLTFGSGTKLEIK , report IC50, inhibition of TR cell-to-cell spread in ARPE-19.
Found: 337

Lookup: For the binder 2-80 (antibody, V domains shown, also called NAb 2-80) VH: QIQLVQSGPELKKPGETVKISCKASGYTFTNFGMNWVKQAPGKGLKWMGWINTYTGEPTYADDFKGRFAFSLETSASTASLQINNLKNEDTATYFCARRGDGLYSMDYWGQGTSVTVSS VL: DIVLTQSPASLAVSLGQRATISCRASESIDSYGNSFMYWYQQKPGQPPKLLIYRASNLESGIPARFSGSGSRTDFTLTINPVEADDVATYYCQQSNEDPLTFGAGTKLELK , report IC50, inhibition of TR cell-to-cell spread in ARPE-19.
Found: 398
